- Tested on: UACC 903 melanoma cells
- PROTOCOL DESCRIPTION: MTS cell viability, UACC 903
- Format: cell-based, human
- CONDITION NOTES: UACC 903, value of the text (Fig. 3A, 72 hours)
pIC50: −log10 of the molar value.
OUTCOME MEASURE: pIC50

COMPOUND | TESTED ON | NUMERIC READOUT
O=C(N/N=C/c1c(O)ccc2ccccc12)c1cc(-c2ccc3ccccc3c2)n[nH]1 [SKI-I] | UACC 903 melanoma cells | 5.24
